target: T1, HLA-DR7 (HLA-DRB1*07:01) (human); assay: competition ELISA vs biotin-YKL
T1 construct: mature; purified from homozygous EBV-transformed lymphoblastoid cells with antibody L243
No end group written: not given here.
Provide the recorded relative affinity for the entries that follow.
Answer with the value's number alone.

# input Input PNLCSEYVKDIYAYL-NH2 [CCNB1 164-178] , output reported relative affinity.
# output 73

# input Input FAFVTDNTYTKHQIR-NH2 [CCNB1 269-283] , output reported relative affinity.
# output 577

# input Input LSYTEESLLPVMQHL-NH2 [CCNB1 369-383] , output reported relative affinity.
# output 91

# input Input NTYTKHQIRQMEMKI-NH2 [CCNB1 275-289] , output reported relative affinity.
# output 43
